# SYSTEM: T1, human CXCR4-enriched lipoparticles (LEV101, Integral Molecular) (human, UniProt P61073 1-352)
# T1 construct: Bought reagent; CXCR4 held in lipoparticles captured by biotinylated WGA on an SA chip; also called Lipoparticles containing CXCR4 proteins
# T1 sequence (P61073 whole entry): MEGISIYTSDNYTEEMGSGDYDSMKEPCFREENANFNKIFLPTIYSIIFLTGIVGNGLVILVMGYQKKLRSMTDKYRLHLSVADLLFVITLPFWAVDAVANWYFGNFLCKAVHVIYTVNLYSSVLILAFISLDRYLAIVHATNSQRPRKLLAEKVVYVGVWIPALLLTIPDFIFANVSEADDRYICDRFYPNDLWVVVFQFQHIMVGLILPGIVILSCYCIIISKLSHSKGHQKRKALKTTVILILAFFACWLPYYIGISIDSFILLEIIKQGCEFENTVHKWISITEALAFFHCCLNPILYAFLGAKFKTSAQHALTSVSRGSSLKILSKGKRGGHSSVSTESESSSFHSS
# ASSAY_INFO: biosensor kinetic titration, Fab over captured human CXCR4 lipoparticles

{"columns": ["BINDER", "QUANTITY_UNIT", "kon"],
 "data": [
  ["h3G10.1.91 VH / h3G10.2.72 VL Fab (Fab, V domains shown, Tested as Fab) VH: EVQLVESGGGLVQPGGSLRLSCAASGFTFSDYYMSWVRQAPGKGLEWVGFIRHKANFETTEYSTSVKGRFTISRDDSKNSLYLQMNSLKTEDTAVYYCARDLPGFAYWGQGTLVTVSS VL: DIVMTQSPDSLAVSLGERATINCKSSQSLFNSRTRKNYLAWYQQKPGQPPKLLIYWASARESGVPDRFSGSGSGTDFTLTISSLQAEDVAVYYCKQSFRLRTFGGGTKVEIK", "M⁻¹ s⁻¹", "1.5e+06"],
  ["h3G10.A57 VH / h3G10.A58B VL Fab (Fab, V domains shown, Tested as Fab) VH: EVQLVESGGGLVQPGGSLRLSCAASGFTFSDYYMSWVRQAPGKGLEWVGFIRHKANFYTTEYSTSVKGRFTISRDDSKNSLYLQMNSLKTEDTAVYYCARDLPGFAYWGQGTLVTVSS VL: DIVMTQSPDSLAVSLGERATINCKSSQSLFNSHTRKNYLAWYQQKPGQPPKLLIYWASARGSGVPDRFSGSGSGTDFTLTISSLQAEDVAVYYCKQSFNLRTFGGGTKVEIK", "M⁻¹ s⁻¹", 688000],
  ["h3G10.2.37 VH / h3G10.A58B VL Fab (Fab, V domains shown, Tested as Fab) VH: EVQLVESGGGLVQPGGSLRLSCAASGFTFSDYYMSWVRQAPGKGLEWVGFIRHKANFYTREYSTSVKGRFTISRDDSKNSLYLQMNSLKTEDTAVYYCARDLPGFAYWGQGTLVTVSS VL: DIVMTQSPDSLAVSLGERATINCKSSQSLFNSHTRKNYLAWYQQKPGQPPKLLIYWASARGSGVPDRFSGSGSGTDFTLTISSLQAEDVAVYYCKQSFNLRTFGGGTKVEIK", "M⁻¹ s⁻¹", 797000],
  ["h3G10.A57 VH / h3G10 VL Fab (Fab, V domains shown, Tested as Fab; also called h3G10.A57 VH / h3G10 L) VH: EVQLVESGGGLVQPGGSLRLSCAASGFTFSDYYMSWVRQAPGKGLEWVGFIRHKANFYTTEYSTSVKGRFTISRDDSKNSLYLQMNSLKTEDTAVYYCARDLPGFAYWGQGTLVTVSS VL: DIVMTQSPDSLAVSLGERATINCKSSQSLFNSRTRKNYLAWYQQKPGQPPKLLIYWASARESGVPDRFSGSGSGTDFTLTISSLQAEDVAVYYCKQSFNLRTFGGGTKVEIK", "M⁻¹ s⁻¹", "1.17e+06"],
  ["h3G10.A57 VH / h3G10.2.72 VL Fab (Fab, V domains shown, Tested as Fab) VH: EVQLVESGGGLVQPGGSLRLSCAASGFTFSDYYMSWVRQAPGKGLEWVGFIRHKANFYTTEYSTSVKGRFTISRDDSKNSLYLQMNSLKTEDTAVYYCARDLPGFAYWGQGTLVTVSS VL: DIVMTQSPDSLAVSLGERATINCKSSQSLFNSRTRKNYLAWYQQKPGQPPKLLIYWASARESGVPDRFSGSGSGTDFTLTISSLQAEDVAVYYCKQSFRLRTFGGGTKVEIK", "M⁻¹ s⁻¹", "1.1e+06"]
]}
